From: patent US8318914B2

Test system: D9Elo(Ro)
Assay type: cell-based, Rhizopus oryzae
Details: 250 μM fatty acid fed to transformed yeast INVSC-1, 12 h induction medium
Observation type: Elongation efficiency as a percentage, D9Elo(Ro) (%)
Just the number please, in %, no unit attached.

What value of Elongation efficiency as a percentage, D9Elo(Ro) has been reported for the following compound? CC/C=C\C/C=C\C/C=C\CCCCCCCC(=O)O 49.3

// query: CCCCCCCC/C=C\CCCCCCCC(=O)O 8.3

Okay, and CCCCCC/C=C\CCCCCCCC(=O)O ? 36.6

Try this compound next: CCCCC/C=C\C/C=C\CCCCCCCC(=O)O 19.3

###

So I've got a bunch of compounds here, and I need their Elongation efficiency in percent, pYES-D6Elo(Pir) values.
Tested on: D6Elo(Pir)
Experiment: Yeast feeding assay: elongation of fed fatty acids by yeast expressing pYES-D6Elo(Pir), GC analysis of FAMEs
Type: cell-based, Pythium irregulare
Conditions: 250 μM fatty acid fed to transformed yeast INVSC-1, 12 h induction medium; (area product/area substrate + product)*100
I only need the number, in %, no unit after it.

What measured Elongation efficiency in percent, pYES-D6Elo(Pir) is associated with CCCCC/C=C\C/C=C\CCCCCCCC(=O)O on D6Elo(Pir)? 11.1

And CCCCC/C=C\C/C=C\C/C=C\CCCCC(=O)O ? 27.1

And the next one, CCCCCC/C=C\CCCCCCCCCC(=O)O [18:1Δ11, cis-vaccenic acid] ? 28.6

Here is the next compound: CC/C=C\C/C=C\C/C=C\CCCCCCCC(=O)O 19.1

Here is the next compound: CCCCC/C=C\C/C=C\C/C=C\C/C=C\CCCC(=O)O 6.7

And what about the compound CC/C=C\C/C=C\C/C=C\C/C=C\CCCCC(=O)O ? 38.7

###

Test system: yeast strain INVSC-1 with empty vector pYES2.1/V5-His-TOPO
Test: Vector control of Example 5: yeast with empty vector pYES2.1/V5-His-TOPO fed fatty acids
Assay type: cell-based
Settings: 250 μM fatty acid fed to yeast INVSC-1, 12 h induction medium
Observation type: Elongation efficiency as a percentage, pYes2.1/V5-His-TOPO
Answer with the value and then the unit.

Data request, read-out Elongation efficiency as a percentage, pYes2.1/V5-His-TOPO, for CC/C=C\C/C=C\C/C=C\CCCCCCCC(=O)O 0.0%

Could you do the same for CCCCCC/C=C\CCCCCCCC(=O)O , please? 2.4%

Again, but for CCCCC/C=C\C/C=C\CCCCCCCC(=O)O 0.0%

Also CCCCCCCC/C=C\CCCCCCCC(=O)O ? 0.0%
